Field: Apparent Pka. Provide a value for each of the compounds that follow.
TEST_DESCRIPTION: Apparent pKa of LNP formulations, TNS fluorescence assay
Format: physicochemical
MEASUREMENT_PARAMETERS: LNP cationic lipid/DSPC/cholesterol/DMG-PEG 50/10/38.5/1.5 mol %
Numbers only.

As a guide, the following entries are already answered.
> print(dat)
                         chemical.structure  readout.value
1  CCCCCCCCC(CCCCCCCC)CNC(=O)CCCCCN(CCN(CCCCO)CCCCCC(=O)OCC(CCCCCCCC)CCCCCCCC)C1CCC1          6.485
2  CCCCCCCCC(CCCCCCCC)COC(=O)CCCCCN1CCC(N(CCO)CCCCCC(=O)OCC(CCCCCCCC)CCCCCCCC)CC1          6.269

Need Apparent Pka of `CCCCCCCCCCCOC(=O)CCCCCN(CCN(CCO)CCCCC(COC(=O)CCCCCCC)COC(=O)CCCCCCC)C1CCC1` , thanks.
6.862

---

TEST_DESCRIPTION: Encapsulation efficiency of lipid nanoparticles, Quant-it Ribogreen RNA assay
Type: physicochemical
MEASUREMENT_PARAMETERS: LNP of lipid/DSPC/cholesterol/PEG-lipid 50:10:38.5:1.5 encapsulating hEPO mRNA
Field: Encapsulation Efficiency. Provide a value for each of the compounds that follow.
One number for each entry, in %.

> print(dat)
                                   compound  readout.value
1  CCCCCCCCC(CCCCCCCC)CNC(=O)CCCCCN(CCO)CCN(CCCCCC(=O)NCC(CCCCCCCC)CCCCCCCC)C1CCCCC1           83.3
2  CCCCCCC(=O)OCC(CCCCN(CCO)CCN(CCCCC(COC(=O)CCCCCC)COC(=O)CCCCCC)C1CCC1)COC(=O)CCCCCC          75.66
3  CCCCCCCCC(CCCCCC)COC(=O)CCCCCN(CCO)CCN(CCCCCC(=O)OCC(CCCCCC)CCCCCCCC)C1CC1 (stereo not shown)           93.9

Need Encapsulation Efficiency of CCCCCCCCCCCOC(=O)CCCCCN(CCN(CCO)CCCCCC(=O)C(CCCCCC)CCCCCCCCC)C1CCCCC1 (stereo not shown) , thanks.
90.3

---

TEST_DESCRIPTION: Lipid nanoparticle size and polydispersity by dynamic light scattering
Format: physicochemical
MEASUREMENT_PARAMETERS: LNP of lipid/DSPC/cholesterol/PEG-lipid 50:10:38.5:1.5 encapsulating hEPO mRNA
MEASURED_QUANTITY: polydispersity

> print(dat)
                                   compound  measured.quantity  readout.value
1  CCCCC/C=C\C/C=C\CCCCCCCC(=O)OCCCCCN(CCN(CCO)CCCCCC(=O)OCC(CCCCCCCC)CCCCCCCC)C1CCCCC1     polydispersity          0.068
2  CCCCCCCCCOC(=O)CCCCCN(CCN(CCO)CCCCCC(=O)OCC(CCCCCCCC)CCCCCCCC)C1CCCCC1     polydispersity          0.082
3  CCCCCCCCC(CCCCCCCC)COC(=O)CCCCCN(C)CCN(CCCCCC(=O)OCC(CCCCCCCC)CCCCCCCC)C1CCC(O)CC1 (centres unmarked)     polydispersity          0.028
4  CCCCCCCCC(CCCCCC)COC(=O)CCCCCN(CCO)CCN(CCCCC(COC(=O)CCCCCCC)COC(=O)CCCCCCC)C1CCCCC1 (centres unmarked)     polydispersity          0.076
5  CCCCCCCCCCCC(=O)OCCCCCN(CCN(CCO)CCCCCOC(=O)CC(CCCCCCCC)CCCCCCCC)C1CC1     polydispersity          0.115

Parameter requested: polydispersity. Apply to each item below.
1. CCCCCCCCCCCOC(=O)CCCCCN(CCN(CCO)CCCCCCCC(=O)OCC(CCCCCCCC)CCCCCCCC)C1CCCCC1
2. CCCCCCCCC(CCCCCC)CNC(=O)CCCCCN(CCCCN(CCO)CCCCC(COC(=O)CCCCCCC)COC(=O)CCCCCCC)C1CC1 (centres unmarked)
3. CCCCCCCCC(CCCCCCCC)COC(=O)CCCCCN(CC=C(C)C)CCN(CCCCCC(=O)OCC(CCCCCCCC)CCCCCCCC)C1CCC(O)CC1 (centres unmarked)
4. CCCCC/C=C\CCCOC(=O)CCCCCN(CCN(CCO)CCCCCC(=O)OCC(CCCCCCCC)CCCCCCCC)C1CCCCC1
5. CCCCCCCC(=O)OCC(COCCN(CCO)CCN(CCOCC(COC(=O)CCCCCCC)COC(=O)CCCCCCC)C1CCC1)COC(=O)CCCCCCC
6. CCCCCCCCC(CCCCCCCC)COC(=O)CCCCCN(CCO)CCN(CCCCCC(=O)OCC(CCCCCCCC)CCCCCCCC)Cc1ccc(O)cc1
7. CCCCCCCCCCCOC(=O)CCCCCN(CCN(CCO)CCCCCC(=O)OCC(CCCCCC)CCCCCCCC)C1CCCCC1 (centres unmarked)

1. 0.037
2. 0.153
3. 0.047
4. 0.046
5. 0.056
6. 0.174
7. 0.089

Parameter requested: polydispersity. Apply to each item below.
1. CCCCCCCCC(CCCCCCCC)COC(=O)CCCCCN(CCC)CCN(CCCCCC(=O)OCC(CCCCCCCC)CCCCCCCC)C1CCC(O)CC1 (centres unmarked)
2. CCCCCCCC(=O)OCC(CCCCN(CCC)CCCCN(CCO)CCCCC(COC(=O)CCCCCCC)COC(=O)CCCCCCC)COC(=O)CCCCCCC
3. CCCCCCCCC(CCCCCCCC)COC(=O)CCCCCN(CCCCCC)CCN(CCCCCC(=O)OCC(CCCCCCCC)CCCCCCCC)C1CCC(O)CC1 (centres unmarked)
4. CCCCCCCCC(CCCCCC)CNC(=O)CCCCCN(CCCCCO)CCN(CCCCC(COC(=O)CCCCCCC)COC(=O)CCCCCCC)C1CCCCC1 (centres unmarked)

[0.089, 0.172, 0.062, 0.039]
